In this section, each of the compounds is paired with its reported Percent Effect.
Test system: Wolbachia pipientis
Assay: Anti-Wolbachia Cell-Based Screen
Format: functional
Design: scale not given: in the data most compounds retested in dose-response had high values
Conditions: 5 µM
Out of some 48,000 compounds screened, about 13,000 (27%) showed an effect of 50% or more. The list shows a part of the results.
reported.property: Percent Effect (%)

1. Cn1ccnc1C1CCCN(C(=O)c2ccncc2F)C1 (stereo not drawn)    111.1
2. CCOc1ncccc1CNCc1c(C)nn(C)c1N(C)C    97
3. Cc1ccc([C@]2(O)CC[C@H]3CN(Cc4cc(C)c(O)c(C)c4)C[C@H]32)nc1.O=C(O)CC(O)(CC(=O)O)C(=O)O    -15.37
4. Cc1cccnc1[C@]1(O)CC[C@H]2CN(Cc3cccc(Cl)c3Cl)C[C@H]21.O=C(O)CC(O)(CC(=O)O)C(=O)O    135.1
5. COc1ccc(CN2C[C@H]3CC[C@](O)(c4ccc(C)cn4)[C@H]3C2)c(F)c1.O=C(O)CC(O)(CC(=O)O)C(=O)O    -13.42
6. Cc1nc(N)sc1C(=O)N1CCCC(c2nccn2CCCN(C)C)C1 (stereo not drawn)    8.356
7. Cc1nc[nH]c1CNC1CC(=O)N(CCc2cccc(Cl)c2)C1 (stereo not drawn)    94.18
8. O=C(NC[C@H]1OC[C@@H](NC2CCC2)[C@@H]1O)c1cccs1    2.166
9. CCC(CNS(=O)(=O)c1c[nH]cn1)Oc1ccccc1F (stereo not drawn)    -7.945
10. Cc1nn(C)c(N(C)C)c1CNCc1cccnc1OC(C)C    107.9
11. O=C(NC1CCN(c2ccccc2OC(F)F)C1)c1cccnc1 (stereo not drawn)    -18.54
12. CC(C)OC[C@H]1CCC[C@]12CN(C(=O)C1CCOCC1)CCO2    106.2
13. Cc1nc(CNC2CC(=O)N(CCc3cccc(Cl)c3)C2)c[nH]1 (stereo not drawn)    91.72
14. Cc1ccc([C@]2(O)CC[C@H]3CN(Cc4cccc(F)c4F)C[C@H]32)nc1.O=C(O)CC(O)(CC(=O)O)C(=O)O    118
15. O=C1CC(NCc2ccc(Cl)s2)CN1Cc1cccc(F)c1 (stereo not drawn)    20.87
16. CN(C)C(=O)CN1C[C@@H]2CC[C@H](C1)N(Cc1cccc(Cl)c1Cl)C2    -2.337
17. CC(C)n1ccnc1CN1CCOC(CC2CCCCC2)C1 (stereo not drawn)    1.186
18. CCCc1nc(N2CCC(CCO)CC2)c2cnn(C)c2n1    -6.253
19. CCCOc1cc(Cl)c(CN2CCNC(C(=O)NC3CC3)C2)cc1OC (stereo not drawn)    -0.8522
20. Cc1cc(C(=O)N2CCCC(c3nccn3Cc3ccncc3)C2)no1 (stereo not drawn)    10.63
21. Cc1cc(C(=O)N2CCCC(c3nccn3C)C2)cc(S(N)(=O)=O)c1C (stereo not drawn)    99.7
22. CCc1ncc(C(=O)N2CCCC(c3nccn3CCOC)C2)cn1 (stereo not drawn)    -9.089
23. CCCc1nc(N2CCCC(CCOC)C2)c2cnn(C)c2n1 (stereo not drawn)    105.9
24. O=C(NC[C@H]1OC[C@@H](NC2CCOCC2)[C@@H]1O)c1cccs1    -3.226
25. Cc1cccc(CNC2CC(=O)N(CCc3cccc(Cl)c3)C2)n1 (stereo not drawn)    115.9
26. Cn1cc(CNCCc2nccs2)c(-c2cccnc2)n1    5.46
27. COC[C@@H]1CCC[C@@]12CN(C(=O)C1CCOCC1)CCO2    108.7
28. COCCn1ccnc1C1CCCN(C(=O)c2ccccc2C#N)C1 (stereo not drawn)    -8.592
29. CCc1nc(N2CCN(CCOC)CC2)c2cnn(C)c2n1    1.381
30. Cc1ccc([C@]2(O)CC[C@H]3CN(Cc4cccc(Cl)c4Cl)C[C@H]32)nc1.O=C(O)CC(O)(CC(=O)O)C(=O)O    -1.737
31. COc1cccc(F)c1C(C)NC(=O)NCc1ccnc(C)n1 (stereo not drawn)    15.11
32. O=S(=O)(CC1CCOCC1)NCc1ccnc(O)c1    1.758
33. CC(=O)Nc1ccc(CNC2CC(=O)N(Cc3cccc(F)c3)C2)cc1 (stereo not drawn)    -1.661
34. CCc1nc(N2CCCC(CCCOC)C2)c2cnn(C)c2n1 (stereo not drawn)    108.6
35. CCc1ncnc2c1CCN(C(=O)c1cccn1C)CC2    -9.929
36. COc1cccc2ccc(CN3CCN(c4ccncc4)CC3)nc12    12.14
37. COCCn1ccnc1C1CCCN(C(=O)c2cc(F)cc(F)c2)C1 (stereo not drawn)    83.8
38. O=C(O)CC(O)(CC(=O)O)C(=O)O.O[C@]1(c2ccccn2)CC[C@@H]2CN(Cc3cccc4ncccc34)C[C@@H]21    -10.13
39. CCN(Cc1ccoc1)C(=O)c1cc(C)c(C)c(S(N)(=O)=O)c1    -19.87
40. N#Cc1cccc(NC2CC(=O)N(CCc3ccc(F)cc3)C2)n1 (stereo not drawn)    1.885
41. COCCn1ccnc1C1CCCN(C(=O)c2ccncc2F)C1 (stereo not drawn)    0
42. CCC(Nc1nc(C(C)C)nc2c1cnn2C)c1ccncc1 (stereo not drawn)    -4.681
43. Cn1cc(C2(C)CN(C(=O)Nc3ccccc3F)CCO2)cn1 (stereo not drawn)    1.448
